Tested on: FMOC24 (patient-derived high-grade serous ovarian cancer cells)
assayNotes: drug sensitivity score (DSS3, normalised partial AUC of % inhibition dose-response) (DSS (score)); higher = more sensitive (stronger inhibition of viability); extreme values may be limits of the assay
condition: 72 h; library: FO5A; assay format: 2D, 384-well, CellTiter-Glo
Listing of recorded drug sensitivity score by entry.
Write the value as a bare number.

Some solved cases for reference:
| compound | targetUnderTest | drug sensitivity score |
| --- | --- | --- |
| NCC(=O)Nc1ccc(-n2nc(C(F)(F)F)cc2-c2ccc3c(ccc4ccccc43)c2)cc1 | FMOC24 | 3.05 |
| Cn1cnc2c(F)c(Nc3ccc(Br)cc3F)c(C(=O)NOCCO)cc21 | FMOC24 | 0 |
| CCN(CC)CCNC(=O)c1c(C)[nH]c(/C=C2\C(=O)Nc3ccc(-c4csc(-c5ccccc5)n4)cc32)c1C | FMOC24 | 8.9 |
| CC(C)C(=O)Nc1ccc([N+](=O)[O-])c(C(F)(F)F)c1 [Flutamide] | FMOC24 | 2.1 |
| COc1cc(Nc2c(C#N)cnc3cc(OCCCN4CCN(C)CC4)c(OC)cc23)c(Cl)cc1Cl | FMOC24 | 7.55 |
| CNC(=O)c1cccc(-c2ccc3c(N4CCOC[C@@H]4C)nc(N4CCOC[C@@H]4C)nc3n2)c1 | FMOC24 | 8.35 |

Input: Param readout= drug sensitivity score; system= FMOC24; entry= "CNC(=O)c1cccc2cc(Oc3ccnc4cc(OCC5(N)CC5)c(OC)cc34)ccc12" ; returns value.
Output: 1.45

Input: Param readout= drug sensitivity score; system= FMOC24; entry= "Nc1cc(C(F)(F)F)c(-c2cc(N3CCOCC3)nc(N3CCOCC3)n2)cn1" ; returns value.
Output: 2.25

---

System: FMOC03 (patient-derived mucinous ovarian cancer cells)
assayNotes: drug sensitivity score (DSS3, normalised partial AUC of % inhibition dose-response) (DSS (score)); higher = more sensitive (stronger inhibition of viability); extreme values may be limits of the assay
condition: 72 h; library: FO5A; assay format: 2D, 384-well, CellTiter-Glo
Listing of recorded drug sensitivity score by entry.
Write the value as a bare number.

| compound | targetUnderTest | recordedNumber |
| --- | --- | --- |
| CCOc1ccccc1-n1c(C(C)N2CCN(C(=O)COc3ccc(Cl)cc3)CC2)nc2ccccc2c1=O (stereo not drawn) | FMOC03 | 6.1 |
| Cc1ccc(C(=O)Nc2cccc(C(F)(F)F)c2)cc1Nc1nc(-c2cccnc2)nc2c1cnn2C | FMOC03 | 5.2 |
| S=C(NCc1ccc2c(c1)OCO2)N1CCN(c2ncnc3c2oc2ccccc23)CC1 | FMOC03 | 2.6 |
| COc1cc2c(Nc3ccc(Cl)c(Cl)c3F)ncnc2cc1OC[C@@H]1C[C@@H]2CN(C)C[C@@H]2C1 | FMOC03 | 18.9 |
| CC(C)C[C@H](NC(=O)CNC(=O)c1cc(Cl)ccc1Cl)B(O)O | FMOC03 | 15.1 |

Turning to the following compound.
Input: Given the compound "NCCNc1ccc(NCCN)c2c1C(=O)c1ccncc1C2=O" , what is its reported drug sensitivity score?
Output: 0

---

Listing of recorded drug sensitivity score by entry.
Tested on: FMOC28 (patient-derived low-grade serous ovarian cancer cells)
assayNotes: drug sensitivity score (DSS3, normalised partial AUC of % inhibition dose-response) (DSS (score)); higher = more sensitive (stronger inhibition of viability); extreme values may be limits of the assay
condition: 72 h; library: FO5A; assay format: 2D, 384-well, CellTiter-Glo
Write the value as a bare number.

Some solved cases for reference:
| compound | drug sensitivity score |
| --- | --- |
| C/C(=C\c1csc(C)n1)[C@@H]1C[C@@H]2O[C@]2(C)CCC[C@H](C)[C@H](O)[C@@H](C)C(=O)C(C)(C)[C@@H](O)CC(=O)N1 [Ixabepilone] | 0 |
| Cc1cc(C(C)Nc2ccccc2)c2nc(N3CCOCC3)cc(=O)n2c1 (stereo not drawn) [TGX-221] | 0 |
| CNC(=O)c1ccc(C)c(-n2c(C)cc(OCc3ccc(F)cc3F)c(Br)c2=O)c1 | 0 |
| O=C(c1ccc(C(=O)N2CCC(N3CCCC3)CC2)c(Nc2ccccc2)c1)N1CCC(N2CCCC2)CC1 [UNC1215] | 0 |
| CN(C)C(=O)c1ccc(S(=O)(=O)c2ccc(NC(=O)[C@@](C)(O)C(F)(F)F)c(Cl)c2)cc1 [AZD7545] | 2.4 |
| Nc1nccc(-c2c(-c3ccc(F)cc3)ncn2C2CCCCC2)n1 | 6.9 |

Input: Given the compound Cc1cc(F)c(C(=O)Nc2cccc(-c3nncn3C(C)C)n2)cc1-n1cnc(C2CC2)c1 [Selonsertib] , what is its reported drug sensitivity score?
Output: 0

---

System: FMOC28
assayNotes: drug sensitivity score (DSS3, normalised partial AUC of % inhibition dose-response) (DSS (score)); higher = more sensitive (stronger inhibition of viability); extreme values may be limits of the assay
condition: 72 h; library: FO5A; assay format: 2D, 384-well, CellTiter-Glo
endpointLabel: drug sensitivity score
Write the value as a bare number.

Some solved cases for reference:
| compound | targetUnderTest | drug sensitivity score |
| --- | --- | --- |
| Cn1cc(C2=C(c3cn(C4CCN(Cc5ccccn5)CC4)c4ccccc34)C(=O)NC2=O)c2ccccc21 | FMOC28 | 0 |
| CCS(=O)(=O)N1CC(CC#N)(n2cc(-c3ncnc4[nH]ccc34)cn2)C1 | FMOC28 | 0 |
| COC(=O)c1ccc([C@H]2c3[nH]c4ccccc4c3C[C@H](C(=O)OC)N2C(=O)CCl)cc1 | FMOC28 | 0 |
| CC(C)n1cnc2c(NCCc3ccc(O)cc3)nc(-c3csc4ccccc34)nc21 | FMOC28 | 2.9 |
| COc1cc(N2CCC(N3CCN(C)CC3)CC2)ccc1Nc1ncc(Cl)c(Nc2ccccc2P(C)(C)=O)n1 | FMOC28 | 4.8 |

Input: Given the compound CC1CCC(n2c3cnccc3c3cnc(Nc4ccc5c(n4)CCN(C(=O)CO)C5)nc32)CC1 (stereo not drawn) , what is its reported drug sensitivity score?
Output: 0

Input: Given the compound "CN(c1ncccc1CNc1nc(Nc2ccc3c(c2)CC(=O)N3)ncc1C(F)(F)F)S(C)(=O)=O" , what is its reported drug sensitivity score?
Output: 7.9

Input: Given the compound "O=c1ncn2nc(Sc3ccc(F)cc3F)ccc2c1-c1c(Cl)cccc1Cl" , what is its reported drug sensitivity score?
Output: 1.1

---

Test system: FMOC02_3 (patient-derived low-grade serous ovarian cancer cells)
assayNotes: drug sensitivity score (DSS3, normalised partial AUC of % inhibition dose-response) (DSS (score)); higher = more sensitive (stronger inhibition of viability); extreme values may be limits of the assay
condition: 72 h; library: FO5A; assay format: 2D, 384-well, CellTiter-Glo
endpointLabel: drug sensitivity score
Write the value as a bare number.

Some solved cases for reference:
| compound | drug sensitivity score |
| --- | --- |
| COc1cc(CCc2cc(NC(=O)c3ccc(N4CC(C)NC(C)C4)cc3)n[nH]2)cc(OC)c1 (stereo not drawn) | 0 |
| C#Cc1cccc(Nc2ncnc3cc(OCCOC)c(OCCOC)cc23)c1 | 15.1 |
| CCN(CC)Cc1ccc2cc(COC(=O)Nc3ccc(C(=O)NO)cc3)ccc2c1 | 5.9 |
| Cn1nccc1Nc1nccc(-c2ccn([C@H](CO)c3ccc(Cl)c(F)c3)c(=O)c2)n1 | 8.3 |

Turning to the following compound.
Input: Param readout= drug sensitivity score; system= FMOC02_3; entry= "CO[C@H]1C[C@@H]2CC[C@@H](C)[C@@](O)(O2)C(=O)C(=O)N2CCCC[C@H]2C(=O)O[C@H]([C@H](C)C[C@@H]2CC[C@@H](O)[C@H](OC)C2)CC(=O)[C@H](C)/C=C(\C)[C@@H](O)[C@@H](OC)C(=O)[C@H](C)C[C@H](C)/C=C/C=C/C=C/1C" ; returns value.
Output: 10

---

Listing of recorded drug sensitivity score by entry.
Tested on: FMOC02_3
assayNotes: drug sensitivity score (DSS3, normalised partial AUC of % inhibition dose-response) (DSS (score)); higher = more sensitive (stronger inhibition of viability); extreme values may be limits of the assay
condition: 72 h; library: FO5A; assay format: 2D, 384-well, CellTiter-Glo
Write the value as a bare number.

Some solved cases for reference:
| compound | targetUnderTest | drug sensitivity score |
| --- | --- | --- |
| CCCCc1nc2cc(/C=C/C(=O)NO)ccc2n1CCN(CC)CC [Pracinostat] | FMOC02_3 | 13.3 |
| CN1CCN(C2CCC(n3cc(-c4ccc(Oc5ccccc5)cc4)c4c(N)ncnc43)CC2)CC1 (stereo not drawn) | FMOC02_3 | 20 |
| CC1(C)NC(=O)N(c2ccc([N+](=O)[O-])c(C(F)(F)F)c2)C1=O [Nilutamide] | FMOC02_3 | 0 |
| Cc1c(-c2c(-c3ccc(F)o3)sc3ncnc(O[C@H](Cc4ccccc4OCc4ccnn4CC(F)(F)F)C(=O)O)c23)ccc(OCCN2CCN(C)CC2)c1Cl | FMOC02_3 | 2.8 |
| Cc1cc(C(C)Nc2ccccc2)c2nc(N3CCOCC3)cc(=O)n2c1 (stereo not drawn) [TGX-221] | FMOC02_3 | 0.8 |

Input: Given the compound CCN(c1cc(-c2ccc(CN3CCOCC3)cc2)cc(C(=O)NCc2c(C)cc(C)[nH]c2=O)c1C)C1CCOCC1 [Tazemetostat] , what is its reported drug sensitivity score?
Output: 0.1

Input: Given the compound CNC(=O)CN1CCC(Oc2cc3c(Nc4cccc(Cl)c4F)ncnc3cc2OC)CC1 [Sapitinib] , what is its reported drug sensitivity score?
Output: 13.8

Input: Given the compound C=CCc1cccc(/C=N/NC(=O)CN2CCN(Cc3ccccc3)CC2)c1O [PAC-1] , what is its reported drug sensitivity score?
Output: 0
